Listing: Kd of selected binders
biological target: T1, hRSV FTM-NN (membrane anchorless form of the Long fusion protein, 70 kDa) (human respiratory syncytial virus, …, UniProt P12568 26-524); assay: SPR (Biacore), FTM-NN amine-coupled on CM5 chip, 1:1 Langmuir fit
T1 construct: also called FTM-NN (Long); hRSV FTM-protein
Field format: number, assumed nM, no unit text.

{"binder": "Nanobody 1B2 (VHH, c-myc/His6-tagged; also called PMP1B2; PRSV1B2) VHH: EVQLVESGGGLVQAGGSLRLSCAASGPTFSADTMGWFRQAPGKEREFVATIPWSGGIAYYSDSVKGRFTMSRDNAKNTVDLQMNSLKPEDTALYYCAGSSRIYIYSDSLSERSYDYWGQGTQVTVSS", "recordedMetric": "Kd", "measuredValue": 0.44}
{"binder": "Nanobody 7B2 (VHH, also called PMP7B2; PRSV7B2) VHH: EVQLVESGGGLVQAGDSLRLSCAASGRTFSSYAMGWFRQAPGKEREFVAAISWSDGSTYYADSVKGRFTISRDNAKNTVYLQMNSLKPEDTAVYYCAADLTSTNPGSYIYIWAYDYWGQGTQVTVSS", "recordedMetric": "Kd", "measuredValue": 1.5}
{"binder": "Nanobody 19E2 (VHH, also called PMP19E2; PRSV19E2) VHH: EVQLVESGGGLVQPGGSLRLSCAASGLTLDYYALGWFRQAPGKEREGVSCISSSDHTTTYTDSVKGRFTISWDNAKNTLYLQMNSLKPEDTAVYYCAADPALGCYSGSYYPRYDFWGQGTQVTVSS", "recordedMetric": "Kd", "measuredValue": 0.52}

Now for the binder whose Kd we want.
## Task // returns reported Kd for input Nanobody 23E5 (VHH, also called PMP23E5; PRSV23E5) VHH: EVQLMESGGGLVQAGGSLRLSCAASGGTFSSYAMGWFRQAPGEERDFVAAIGWSGNSPYYAQFVKGRFTISRDNAKNTVHLQMNSLKPEDTAVYYCAAAHNTMGSDYEGYDYWGQGTQVTVSS
## Result 7.9

Taken from patent US20120301469A1.
